# IC50 values compiled below
target: ENPP-1 (Ectonucleotide Pyrophosphatase/Phosphodiesterase 1) (Homo sapiens (Human), UniProt P22413); experiment: ENPP1 inhibition assay (AMP Glo, cGAMP substrate); type: biochemical; details: cGAMP 20 μM substrate, ENPP1 1 nM
Sequence (P22413 whole entry): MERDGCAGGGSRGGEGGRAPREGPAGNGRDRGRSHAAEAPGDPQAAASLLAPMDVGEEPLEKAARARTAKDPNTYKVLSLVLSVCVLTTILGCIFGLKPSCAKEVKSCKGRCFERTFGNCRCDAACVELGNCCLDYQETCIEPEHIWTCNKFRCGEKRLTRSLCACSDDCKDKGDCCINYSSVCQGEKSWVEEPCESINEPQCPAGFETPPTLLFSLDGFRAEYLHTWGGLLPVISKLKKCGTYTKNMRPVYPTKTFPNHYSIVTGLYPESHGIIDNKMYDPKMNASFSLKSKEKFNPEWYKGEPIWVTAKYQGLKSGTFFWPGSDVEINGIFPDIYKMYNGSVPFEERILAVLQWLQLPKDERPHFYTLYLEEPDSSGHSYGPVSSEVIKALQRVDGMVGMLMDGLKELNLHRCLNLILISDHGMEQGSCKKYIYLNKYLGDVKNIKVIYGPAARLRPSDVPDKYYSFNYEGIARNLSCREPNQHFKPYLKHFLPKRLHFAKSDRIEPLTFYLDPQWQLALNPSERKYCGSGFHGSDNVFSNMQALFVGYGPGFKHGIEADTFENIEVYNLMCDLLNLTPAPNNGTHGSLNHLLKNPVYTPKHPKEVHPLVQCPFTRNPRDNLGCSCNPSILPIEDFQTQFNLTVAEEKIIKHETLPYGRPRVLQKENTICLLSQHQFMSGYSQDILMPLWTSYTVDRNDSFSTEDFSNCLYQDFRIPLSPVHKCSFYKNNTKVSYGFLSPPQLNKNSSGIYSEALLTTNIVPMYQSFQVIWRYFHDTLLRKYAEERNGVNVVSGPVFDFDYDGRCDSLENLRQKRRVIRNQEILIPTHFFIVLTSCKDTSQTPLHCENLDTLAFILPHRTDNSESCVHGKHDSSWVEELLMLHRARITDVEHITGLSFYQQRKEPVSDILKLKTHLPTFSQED
Report as a plain number; the unit µM is understood.

Past entries and their recorded results:
molecule="Cc1cc(Br)n2ncnc(N3CC4(CC(N(C)S(N)(=O)=O)C4)C3)c12 [Compound 1.79]" quantitative_result=0.053
molecule="COCCN(C1CC2(C1)CN(c1ncnn3c(Cl)cc(C)c13)C2)S(N)(=O)=O [Compound 1.122]" quantitative_result=0.062
molecule="COc1cc2nc(-c3ccccc3)nc(N3CC(CCNS(N)(=O)=O)C3)c2cc1OC [Compound 1.21]" quantitative_result=0.092

Proceed to the following item.
IN: Can you share its IC50? I mean this molecule: Cc1cc(F)n2ncnc(N3CC4(CC(N(C)S(N)(=O)=O)C4)C3)c12 [Compound 1.80]
OUT: 0.616
